- System: M14 melanoma
- test: NCI tumour cell line growth inhibition, 48 h
observable: TGI (µM)
Numbers only, in µM.

Your task in this section: give TGI for each listed record.
1. COc1cc2c(cc1OC)C(CCc1ccc(Cl)cc1)N(C)CC2 (stereo unspecified)
2. C=C1CC[C@@H]2C(C)(C)[C@@H](O)CC[C@@]2(C)[C@@H]1COc1ccc2ccc(=O)oc2c1
3. CN(CCCNC(=O)c1cn(C)c2c1ccc1cc(Cl)ccc12)CCCNC(=O)c1cn(C)c2c1ccc1cc(Cl)ccc12
4. Oc1c(C(O)(c2ccccc2)c2ccc3ccccc3c2O)ccc2ccccc12
5. CN(C)C(=S)Nc1nnc(NC23CC4CC(CC(C4)C2)C3)s1

37.7
27.2
3.75
31
29.7
